Where do the numbers come from? From ChEMBL document CHEMBL3992514.

Assay: Cytotoxicity against HEK293 cells assessed as cell viability at 50 uM after 24 hrs by Alamar blue assay relative to control
Format: cell-based
Conditions: human, read-out: Activity
Assay Readout: viability at 24 h, 50 µM (%)

Chemical Smiles | Assay Value
CCCOCc1c(-c2ccc(C(=N)N)cc2)oc(-c2ccc(C(=N)N)cc2)c1Cl | 1

* * *

Assay: Selectivity index, ratio of IC50 for HEK293 cells to IC50 for drug-sensitive Plasmodium falciparum 3D7 infected in erythrocytes
Conditions: human
Some compounds, each annotated with its measured selectivity ratio.
Assay Readout: selectivity ratio

Chemical Smiles | Assay Value
CSCCNC(=O)Cc1cc(-c2ccc(C(=N)N)cc2)oc1-c1ccc(C(=N)N)cc1 | > 8
Cc1c(-c2ccc(C(=N)NCC(C)C)cc2)oc(-c2ccc(C(=N)NCC(C)C)cc2)c1C | 870
N=C(N)c1ccc(-c2cc(CC(=O)NCCCc3ccccc3)c(-c3ccc(C(=N)N)cc3)o2)cc1 | > 65
N=C(N)c1ccc(NC(=O)Nc2ccc(C(=N)N)cc2)cc1 | 5780
CCNC(=N)c1ccc(-c2oc(-c3ccc(C(=N)NCC)cc3)c(C)c2C)cc1 | 1660
N=C(N)c1ccc(-c2cc(CC(=O)N3CCN(c4ncccn4)CC3)c(-c3ccc(C(=N)N)cc3)o2)cc1 | > 7
N=C(N)c1ccc(-c2cc(CC(=O)NCCC(c3ccccc3)c3ccccc3)c(-c3ccc(C(=N)N)cc3)o2)cc1 | > 36
CNC(=O)Cc1cc(-c2ccc(C(=N)N)cc2)oc1-c1ccc(C(=N)N)cc1 | > 9
CN(C)C(=O)Cc1cc(-c2ccc(C(=N)N)cc2)oc1-c1ccc(C(=N)N)cc1 | > 8
Cc1c(-c2ccc(C(=N)N)cc2)oc(-c2ccc(C(=N)N)cc2)c1C | 2240
COCc1c(-c2ccc(C(=N)N)cc2)oc(-c2ccc(C(=N)N)cc2)c1COC | > 48
N=C(N)c1ccc(-c2cc(CC(=O)NCC(c3ccccc3)c3ccccc3)c(-c3ccc(C(=N)N)cc3)o2)cc1 | > 36
N=C(N)c1ccc(-c2cc(CC(=O)NCCc3ccccc3)c(-c3ccc(C(=N)N)cc3)o2)cc1 | > 42
CCCOCc1c(-c2ccc(C(=N)N)cc2)oc(-c2ccc(C(=N)N)cc2)c1COCCC | > 161
CCOCc1c(-c2ccc(C(=N)N)cc2)oc(-c2ccc(C(=N)N)cc2)c1COCC | > 42
CCOC(=O)Cc1cc(-c2ccc(C(=N)N)cc2)oc1-c1ccc(C(=N)N)cc1 | 1060
N=C(N)c1ccc(-c2cc(CC(=O)N3CCN(C(c4ccc(F)cc4)c4ccc(F)cc4)CC3)c(-c3ccc(C(=N)N)cc3)o2)cc1 | > 30
Cc1c(-c2ccc(C(=N)NC(C)C)cc2)oc(-c2ccc(C(=N)NC(C)C)cc2)c1C | 8130

* * *

Test: Half life in Swiss Webster mouse at 30 mg/kg, po
Type: ADME, organism-based
Settings: in vivo
Assay Readout: half-life (h)

Compound | Assay Value
N=C(N)c1ccc(-c2ccc(-c3ccc(C(=N)N)cc3)o2)cc1 [FURAMIDINE] | 107

* * *

Some compounds, each annotated with its measured selectivity ratio.
Assay: Selectivity index, ratio of IC50 for HEK293 cells to IC50 for drug-resistant Plasmodium falciparum Dd2 infected in erythrocytes
Settings: human

Chemical Smiles | selectivity ratio
CSCCNC(=O)Cc1cc(-c2ccc(C(=N)N)cc2)oc1-c1ccc(C(=N)N)cc1 | > 10
N=C(N)c1ccc(-c2cc(CC(=O)NCCC(c3ccccc3)c3ccccc3)c(-c3ccc(C(=N)N)cc3)o2)cc1 | > 34
Cc1c(-c2ccc(C(=N)NC(C)C)cc2)oc(-c2ccc(C(=N)NC(C)C)cc2)c1C | 3430
Cc1c(-c2ccc(C(=N)N)cc2)oc(-c2ccc(C(=N)N)cc2)c1C | 1230
CCOC(=O)Cc1cc(-c2ccc(C(=N)N)cc2)oc1-c1ccc(C(=N)N)cc1 | 270
CONC(=N)c1ccc(-c2oc(-c3ccc(C(=N)NOC)cc3)c(C)c2C)cc1 | > 5
CCCOCc1c(-c2ccc(C(=N)N)cc2)oc(-c2ccc(C(=N)N)cc2)c1COCCC | > 128
N=C(N)c1ccc(-c2cc(CC(=O)N3CCN(C(c4ccccc4)c4ccccc4)CC3)c(-c3ccc(C(=N)N)cc3)o2)cc1 | > 10
CCOCc1c(-c2ccc(C(=N)N)cc2)oc(-c2ccc(C(=N)N)cc2)c1COCC | > 59
N=C(N)c1ccc(-c2cc(CC(=O)N3CCN(C(c4ccc(F)cc4)c4ccc(F)cc4)CC3)c(-c3ccc(C(=N)N)cc3)o2)cc1 | > 8
CSCCCNC(=O)Cc1cc(-c2ccc(C(=N)N)cc2)oc1-c1ccc(C(=N)N)cc1 | > 10
CCNC(=N)c1ccc(-c2oc(-c3ccc(C(=N)NCC)cc3)c(C)c2C)cc1 | 1110
COCc1c(-c2ccc(C(=N)N)cc2)oc(-c2ccc(C(=N)N)cc2)c1COC | > 56
N=C(N)c1ccc(-c2cc(CC(=O)N3CCN(c4ncccn4)CC3)c(-c3ccc(C(=N)N)cc3)o2)cc1 | > 3
CN(C)C(=O)Cc1cc(-c2ccc(C(=N)N)cc2)oc1-c1ccc(C(=N)N)cc1 | > 13
N=C(N)c1ccc(-c2cc(CC(=O)NCCCO)c(-c3ccc(C(=N)N)cc3)o2)cc1 | > 3
N=C(N)c1ccc(-c2cc(CC(=O)NCCc3ccccc3)c(-c3ccc(C(=N)N)cc3)o2)cc1 | > 42
Cc1c(-c2ccc(C(=N)NCC(C)C)cc2)oc(-c2ccc(C(=N)NCC(C)C)cc2)c1C | 220
CC(C)OCc1c(-c2ccc(C(=N)N)cc2)oc(-c2ccc(C(=N)N)cc2)c1COC(C)C | > 42
N=C(N)c1ccc(-c2cc(CC(=O)NCC(c3ccccc3)c3ccccc3)c(-c3ccc(C(=N)N)cc3)o2)cc1 | > 35
N=C(N)c1ccc(-c2cc(CC(=O)NCCCc3ccccc3)c(-c3ccc(C(=N)N)cc3)o2)cc1 | > 30
Cc1c(-c2ccc(C(=N)NO)cc2)oc(-c2ccc(C(=N)NO)cc2)c1C | > 10
CNC(=O)Cc1cc(-c2ccc(C(=N)N)cc2)oc1-c1ccc(C(=N)N)cc1 | > 16
N=C(N)c1ccc(-c2cc(CC(=O)NCC3CCCCC3)c(-c3ccc(C(=N)N)cc3)o2)cc1 | > 20
COCc1c(-c2ccc(C(=N)N)cc2)oc(-c2ccc(C(=N)N)cc2)c1Cl | 2320
